Experiment: Apparent clearance in BALB/c mouse at 5 mg/kg, po after 24 hrs by LC/MS/MS method
Type: ADME, organism-based
Set-up: dose 5 mg/kg, route oral
Settings: BALB/c, in vivo, read-out: CL(app)
readout.label: CL/F (mL/min/kg)

smiles_record=COc1cc2ncnc(Nc3ccc(F)c(Cl)c3)c2cc1NC(=O)/C(F)=C/CN1CCCCC1 readout_label=CL/F value_measured=40

----------
Assay: Intrinsic clearance in dog liver microsomes assessed per mg protein at 1 uM in presence of NADPH after 0.5 to 30 mins by LC/MS/MS method
Type: ADME, Canis lupus familiaris
Settings: read-out: CLH
Mark each entry true (1) if its microsomal CLint at 1 µM sits below 30 µL/min/mg, and false (0) for all others.

compound=COc1cc2ncnc(Nc3ccc(F)c(Cl)c3)c2cc1NC(=O)/C(F)=C/CN1CCCCC1 group="false (0)"
compound="C=CC(=O)Nc1cc2c(Nc3ccc(F)c(Cl)c3)ncnc2cc1OCCCN1CCOCC1 [CANERTINIB]" group="true (1)"
compound=CN(C)C/C=C(\F)C(=O)Nc1cc2c(Nc3ccc(F)c(Cl)c3)ncnc2cc1O[C@H]1CCOC1 group="false (0)"
compound=COc1cc2ncnc(Nc3ccc(F)c(Cl)c3)c2cc1NC(=O)/C(F)=C/CN(C)C group="false (0)"
compound="CN(C)C/C=C/C(=O)Nc1cc2c(Nc3ccc(F)c(Cl)c3)ncnc2cc1O[C@H]1CCOC1 [AFATINIB]" group="true (1)"
compound=CCOc1cc2ncnc(Nc3ccc(OCc4ccccn4)c(Cl)c3)c2cc1NC(=O)/C(F)=C/CN(C)C group="false (0)"

----------
Entries and their measured CL/F follow.
Experiment: Apparent clearance in BALB/c mouse at 10 mg/kg, po after 24 hrs by LC/MS/MS method
Assay type: ADME, organism-based
Design: dose 10 mg/kg, route oral
Conditions: BALB/c, in vivo, read-out: CL(app)
readout.label: CL/F (L/h/kg)

smiles_record=CN(C)C/C=C(\F)C(=O)Nc1cc2c(Nc3ccc(F)c(Cl)c3)ncnc2cc1O[C@H]1CCOC1 value_measured=1.8
smiles_record=COc1cc2ncnc(Nc3ccc(F)c(Cl)c3)c2cc1NC(=O)/C(F)=C/CN(C)C value_measured=3
smiles_record=CCOc1cc2ncnc(Nc3ccc(OCc4ccccn4)c(Cl)c3)c2cc1NC(=O)/C(F)=C/CN(C)C value_measured=1.2

----------
Recorded below: IC50, system Epidermal growth factor receptor (Homo sapiens, UniProt P00533, T790M).
readout.label: IC50 (nM)

smiles_record=CN(C)C/C=C(\F)C(=O)Nc1cc2c(Nc3ccc(F)c(Cl)c3)ncnc2cc1O[C@H]1CCOC1 value_measured=5.52
smiles_record=CCOc1cc2ncnc(Nc3ccc(Oc4ccc(C)nc4)c(Cl)c3)c2cc1NC(=O)/C(F)=C/CN(C)C value_measured=7.1
smiles_record=CN(C)C/C=C(/F)C(=O)Nc1cc2c(Nc3ccc(F)c(Cl)c3)ncnc2cc1O[C@H]1CCOC1 value_measured=25.8
smiles_record=CCOc1cc2ncnc(Nc3ccc(Oc4ccc(C)nc4)c(Cl)c3)c2cc1NC(=O)/C(F)=C/CN1CCCCC1 value_measured=37.9
smiles_record=COc1cc2ncnc(Nc3cccc(Br)c3)c2cc1NC(=O)/C(F)=C/CN(C)C value_measured=8.3
smiles_record=CCOc1cc2ncnc(Nc3ccc(OCC4CC4)c(Cl)c3)c2cc1NC(=O)/C(F)=C/CN(C)C value_measured=3.5
smiles_record=COc1cc2ncnc(Nc3ccc(F)c(Cl)c3)c2cc1NC(=O)/C(F)=C/CN(C)C value_measured=6.67
smiles_record=O=C(Nc1cc2c(Nc3ccc(F)c(Cl)c3)ncnc2cc1O[C@H]1CCOC1)/C(F)=C/CN1CCCCC1 value_measured=16.4
smiles_record=CCOc1cc2ncnc(Nc3ccc(OCc4ccccn4)c(Cl)c3)c2cc1NC(=O)/C(F)=C/CN(C)C value_measured=3.77
smiles_record=COc1cc2ncnc(Nc3ccc(OCc4cccc(F)c4)c(Cl)c3)c2cc1NC(=O)/C(F)=C/CN(C)C value_measured=2.1
smiles_record=COc1cc2ncnc(Nc3ccc(F)c(Cl)c3)c2cc1NC(=O)/C(F)=C/CN1CCOCC1 value_measured=59.8

----------
Entries and their measured AUC(0-inf) follow.
Test: AUC (0 to infinity) in BALB/c mouse at 10 mg/kg, po after 24 hrs by LC/MS/MS method
Format: ADME, organism-based, Plasma
Set-up: dose 10 mg/kg, route oral, time infinity
Conditions: BALB/c, plasma
readout.label: AUC(0-inf) (µM·h)

smiles_record=CN(C)C/C=C(\F)C(=O)Nc1cc2c(Nc3ccc(F)c(Cl)c3)ncnc2cc1O[C@H]1CCOC1 value_measured=10.4
smiles_record=CCOc1cc2ncnc(Nc3ccc(OCc4ccccn4)c(Cl)c3)c2cc1NC(=O)/C(F)=C/CN(C)C value_measured=16.6
smiles_record=COc1cc2ncnc(Nc3ccc(F)c(Cl)c3)c2cc1NC(=O)/C(F)=C/CN(C)C value_measured=7.67

----------
Test: Intrinsic clearance in mouse liver microsomes assessed per mg protein at 1 uM in presence of NADPH after 0.5 to 30 mins by LC/MS/MS method
Assay type: ADME
Conditions: read-out: CLH
readout.label: microsomal CLint at 1 µM (µL/min/mg)

smiles_record=CN(C)C/C=C(\F)C(=O)Nc1cc2c(Nc3ccc(F)c(Cl)c3)ncnc2cc1O[C@H]1CCOC1 readout_label="microsomal CLint at 1 µM" unit_abbrev=µL/min/mg value_measured=12
smiles_record=COc1cc2ncnc(Nc3ccc(F)c(Cl)c3)c2cc1NC(=O)/C(F)=C/CN(C)C readout_label="microsomal CLint at 1 µM" unit_abbrev=µL/min/mg value_measured=45
smiles_record=CCOc1cc2ncnc(Nc3ccc(OCc4ccccn4)c(Cl)c3)c2cc1NC(=O)/C(F)=C/CN(C)C readout_label="microsomal CLint at 1 µM" unit_abbrev=µL/min/mg value_measured=47
smiles_record=C=CC(=O)Nc1cc2c(Nc3ccc(F)c(Cl)c3)ncnc2cc1OCCCN1CCOCC1 readout_label="microsomal CLint at 1 µM" unit_abbrev=µL/min/mg value_measured=5
smiles_record=COc1cc2ncnc(Nc3ccc(F)c(Cl)c3)c2cc1NC(=O)/C(F)=C/CN1CCCCC1 readout_label="microsomal CLint at 1 µM" unit_abbrev=µL/min/mg value_measured=31
smiles_record=CN(C)C/C=C/C(=O)Nc1cc2c(Nc3ccc(F)c(Cl)c3)ncnc2cc1O[C@H]1CCOC1 readout_label="microsomal CLint at 1 µM" unit_abbrev=µL/min/mg value_measured=6

----------
Assay: Oral bioavailability in BALB/c mouse at 10 mg/kg after 24 hrs by LC/MS/MS method
Type: ADME, organism-based
Details: in vivo
readout.label: bioavailability (%)

compound="CN(C)C/C=C/C(=O)Nc1cc2c(Nc3ccc(F)c(Cl)c3)ncnc2cc1O[C@H]1CCOC1 [AFATINIB]" value_measured=37.4
compound=COc1cc2ncnc(Nc3ccc(F)c(Cl)c3)c2cc1NC(=O)/C(F)=C/CN(C)C value_measured=98.5
compound=CCOc1cc2ncnc(Nc3ccc(OCc4ccccn4)c(Cl)c3)c2cc1NC(=O)/C(F)=C/CN(C)C value_measured=89.4
compound=CN(C)C/C=C(\F)C(=O)Nc1cc2c(Nc3ccc(F)c(Cl)c3)ncnc2cc1O[C@H]1CCOC1 value_measured=84.7

----------
Target: RAC-beta serine/threonine-protein kinase (Homo sapiens, UniProt P31751)
Sequence (P31751 whole entry): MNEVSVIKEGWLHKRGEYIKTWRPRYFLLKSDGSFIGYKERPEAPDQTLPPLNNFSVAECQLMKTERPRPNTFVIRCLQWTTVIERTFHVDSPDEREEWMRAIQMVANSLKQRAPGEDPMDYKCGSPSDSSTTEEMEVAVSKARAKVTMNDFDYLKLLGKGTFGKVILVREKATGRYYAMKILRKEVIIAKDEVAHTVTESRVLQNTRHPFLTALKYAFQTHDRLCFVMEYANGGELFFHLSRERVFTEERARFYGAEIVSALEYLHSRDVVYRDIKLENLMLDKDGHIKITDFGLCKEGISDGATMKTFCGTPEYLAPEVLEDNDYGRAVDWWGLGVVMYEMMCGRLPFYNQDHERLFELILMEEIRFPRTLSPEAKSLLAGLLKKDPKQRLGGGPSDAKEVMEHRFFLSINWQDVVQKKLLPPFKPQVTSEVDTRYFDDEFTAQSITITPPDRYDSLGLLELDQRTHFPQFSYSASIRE
readout.label: IC50

smiles_record=COc1cc2ncnc(Nc3ccc(F)c(Cl)c3)c2cc1NC(=O)/C(F)=C/CN(C)C readout_label=IC50 value_measured="> 10 µM"

----------
Target: Cytochrome P450 2C19 (Homo sapiens, UniProt P33261)
Sequence (P33261 whole entry): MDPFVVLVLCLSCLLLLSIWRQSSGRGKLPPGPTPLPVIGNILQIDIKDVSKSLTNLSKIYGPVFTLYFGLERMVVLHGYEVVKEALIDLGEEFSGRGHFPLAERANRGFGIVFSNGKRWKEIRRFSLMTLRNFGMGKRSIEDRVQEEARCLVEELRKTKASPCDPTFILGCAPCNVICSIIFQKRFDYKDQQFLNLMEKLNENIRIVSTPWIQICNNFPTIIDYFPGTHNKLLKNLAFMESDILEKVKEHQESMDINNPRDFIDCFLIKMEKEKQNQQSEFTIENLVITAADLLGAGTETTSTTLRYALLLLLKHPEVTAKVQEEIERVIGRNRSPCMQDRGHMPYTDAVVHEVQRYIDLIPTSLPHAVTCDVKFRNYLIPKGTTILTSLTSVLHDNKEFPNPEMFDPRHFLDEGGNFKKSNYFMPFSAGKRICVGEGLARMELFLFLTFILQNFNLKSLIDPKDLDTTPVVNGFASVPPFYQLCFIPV
Experiment: Inhibition of CYP2C19 in human hepatic microsomes after 20 mins by LC/MS/MS method
Format: ADME, Liver
readout.label: IC50

smiles_record=CCOc1cc2ncnc(Nc3ccc(OCc4ccccn4)c(Cl)c3)c2cc1NC(=O)/C(F)=C/CN(C)C system_name="Cytochrome P450 2C19 (Homo sapiens, UniProt P33261)" readout_label=IC50 value_measured="> 10 µM"
smiles_record=CN(C)C/C=C(\F)C(=O)Nc1cc2c(Nc3ccc(F)c(Cl)c3)ncnc2cc1O[C@H]1CCOC1 system_name="Cytochrome P450 2C19 (Homo sapiens, UniProt P33261)" readout_label=IC50 value_measured="> 10 µM"

----------
Sequence of the target: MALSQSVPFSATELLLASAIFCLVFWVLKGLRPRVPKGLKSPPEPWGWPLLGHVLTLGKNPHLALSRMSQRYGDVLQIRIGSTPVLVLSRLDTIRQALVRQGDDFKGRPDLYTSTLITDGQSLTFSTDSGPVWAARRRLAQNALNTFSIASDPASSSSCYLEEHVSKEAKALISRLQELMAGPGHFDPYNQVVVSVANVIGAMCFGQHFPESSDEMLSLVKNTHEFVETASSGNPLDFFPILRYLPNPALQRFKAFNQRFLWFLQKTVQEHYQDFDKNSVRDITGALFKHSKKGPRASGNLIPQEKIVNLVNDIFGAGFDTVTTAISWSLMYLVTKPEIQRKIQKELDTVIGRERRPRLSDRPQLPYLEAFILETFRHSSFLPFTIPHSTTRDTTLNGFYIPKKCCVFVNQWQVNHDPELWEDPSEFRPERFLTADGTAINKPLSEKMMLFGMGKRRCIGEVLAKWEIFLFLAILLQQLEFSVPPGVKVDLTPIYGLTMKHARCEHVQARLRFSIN
pIC50: −log10 of the molar value.
Entries and their measured pIC50 follow.
readout.label: pIC50

smiles_record=COc1cc2ncnc(Nc3ccc(F)c(Cl)c3)c2cc1NC(=O)/C(F)=C/CN(C)C value_measured="< 5.00"
smiles_record=CN(C)C/C=C(\F)C(=O)Nc1cc2c(Nc3ccc(F)c(Cl)c3)ncnc2cc1O[C@H]1CCOC1 value_measured="< 5.00"
smiles_record=CCOc1cc2ncnc(Nc3ccc(OCc4ccccn4)c(Cl)c3)c2cc1NC(=O)/C(F)=C/CN(C)C value_measured="< 5.00"
